Papp B→A reference
# measurement_notes: in vitro
# experimental_setup: dog, MDCK-MDR1
# Description: Apparent permeability in dog MDCK-MDR1 cells from basal to apical side measured after 30 to 120 mins by LC-MS analysis
experimental_endpoint: Papp B→A (×10⁻⁶ cm/s)

INSERT INTO measurements (chemical_smiles, u, experimental_value) VALUES
  ('CN1CC[C@@]23CCCC[C@@H]2[C@@H]1Cc1ccc(OC(F)F)cc13', '×10⁻⁶ cm/s', 0.979),
  ('CN1CC[C@@]23CCCC[C@@H]2[C@@H]1Cc1ccc(C(F)(F)C(F)(F)F)cc13', '×10⁻⁶ cm/s', 0.833),
  ('COc1ccc2c(c1)[C@@]13CCCC[C@@H]1[C@@H](C2)N(C)CC3', '×10⁻⁶ cm/s', 1.21),
  ('CN1CC[C@@]23CCCC[C@@H]2[C@@H]1Cc1ccc(C(F)F)cc13', '×10⁻⁶ cm/s', 1.1);

---

# measurement_notes: Aqueous solubility of compound in universal buffer at pH 7.4 at 100 uM incubated for 1.5 hrs under shaking condition by LC-MS/MS analysis
# Type: physicochemical
solubility at 1.5 h, 100 µM reference
experimental_endpoint: solubility at 1.5 h, 100 µM

INSERT INTO results (chemical_smiles, experimental_endpoint, experimental_value) VALUES
  ('CN1CC[C@@]23CCCC[C@@H]2[C@@H]1Cc1ccc(OC(F)F)cc13', 'solubility at 1.5 h, 100 µM', '> 100 µM'),
  ('CN1CC[C@@]23CCCC[C@@H]2[C@@H]1Cc1ccc(C(F)F)cc13', 'solubility at 1.5 h, 100 µM', '> 100 µM'),
  ('CN1CC[C@@]23CCCC[C@@H]2[C@@H]1Cc1ccc(C(F)(F)C(F)(F)F)cc13', 'solubility at 1.5 h, 100 µM', '> 100 µM'),
  ('CN1CC[C@@]23CCCC[C@@H]2[C@@H]1Cc1ccc(OC(F)(F)F)cc13', 'solubility at 1.5 h, 100 µM', '> 100 µM');

---

# measurement_notes: in vitro
# experimental_setup: dog, MDCK-MDR1
# Description: Apparent permeability in dog MDCK-MDR1 cells from apical to basal side measured after 30 to 120 mins by LC-MS analysis
experimental_endpoint: Papp A→B (×10⁻⁶ cm/s)

INSERT INTO measurements (chemical_smiles, experimental_value) VALUES
  ('CN1CC[C@@]23CCCC[C@@H]2[C@@H]1Cc1ccc(C(F)(F)F)cc13', 1.22),
  ('CN1CC[C@@]23CCCC[C@@H]2[C@@H]1Cc1ccc(C(C)(F)F)cc13', 0.763),
  ('CN1CC[C@@]23CCCC[C@@H]2[C@@H]1Cc1ccc(C(F)F)cc13', 1.35);
